Sourced from ChEMBL document CHEMBL1158369

# PROTOCOL_SUMMARY: Lipophilicity, log P of the compound
# Type: physicochemical
# TEST_SETTINGS: octanol/water
logP values, listed per item
MEASURED_ATTRIBUTE: logP

>  <MOLECULE_SMILES>
COc1ccc(/C=N/NC(=O)c2ccc([N+](=O)[O-])cc2)cc1OC

>  <MEASURED_ATTRIBUTE>
logP

>  <OBSERVED>
2.87

$$$$
>  <MOLECULE_SMILES>
COc1ccc(/C=N/NC(=O)c2ccc(C)cc2)cc1

>  <MEASURED_ATTRIBUTE>
logP

>  <OBSERVED>
3.64

$$$$
>  <MOLECULE_SMILES>
O=C(N/N=C/c1cccc([N+](=O)[O-])c1)c1cccc([N+](=O)[O-])c1

>  <MEASURED_ATTRIBUTE>
logP

>  <OBSERVED>
3.33

$$$$
>  <MOLECULE_SMILES>
COc1ccc(/C=N/NC(=O)c2cc([N+](=O)[O-])cc([N+](=O)[O-])c2)cc1

>  <MEASURED_ATTRIBUTE>
logP

>  <OBSERVED>
3.08

$$$$
>  <MOLECULE_SMILES>
COc1ccc(C(=O)N/N=C/c2cccc([N+](=O)[O-])c2)cc1OC

>  <MEASURED_ATTRIBUTE>
logP

>  <OBSERVED>
2.87

$$$$
>  <MOLECULE_SMILES>
COc1ccc(/C=N/NC(=O)c2ccc(OC)c(OC)c2)cc1OC

>  <MEASURED_ATTRIBUTE>
logP

>  <OBSERVED>
2.42

$$$$
>  <MOLECULE_SMILES>
COc1ccc(/C=N/NC(=O)c2cc([N+](=O)[O-])ccc2Cl)cc1OC

>  <MEASURED_ATTRIBUTE>
logP

>  <OBSERVED>
3.39

$$$$
>  <MOLECULE_SMILES>
Nc1ccc(C(=O)N/N=C/c2cccc([N+](=O)[O-])c2)cc1

>  <MEASURED_ATTRIBUTE>
logP

>  <OBSERVED>
2.6

$$$$
>  <MOLECULE_SMILES>
COc1ccc(/C=N/NC(=O)c2ccc(Cl)cc2)cc1OC

>  <MEASURED_ATTRIBUTE>
logP

>  <OBSERVED>
3.44

$$$$
>  <MOLECULE_SMILES>
Cc1ccc(C(=O)N/N=C/c2ccco2)cc1

>  <MEASURED_ATTRIBUTE>
logP

>  <OBSERVED>
2.84

$$$$
>  <MOLECULE_SMILES>
COc1ccc(/C=N/NC(=O)c2ccc(N)cc2)cc1

>  <MEASURED_ATTRIBUTE>
logP

>  <OBSERVED>
2.39

$$$$
>  <MOLECULE_SMILES>
O=C(N/N=C/c1cccc([N+](=O)[O-])c1)c1ccc([N+](=O)[O-])cc1

>  <MEASURED_ATTRIBUTE>
logP

>  <OBSERVED>
3.33

$$$$
>  <MOLECULE_SMILES>
O=C(N/N=C/c1cccc([N+](=O)[O-])c1)c1ccc(Cl)cc1

>  <MEASURED_ATTRIBUTE>
logP

>  <OBSERVED>
3.9

$$$$
>  <MOLECULE_SMILES>
O=C(N/N=C/c1cccc([N+](=O)[O-])c1)c1ccccc1Br

>  <MEASURED_ATTRIBUTE>
logP

>  <OBSERVED>
4.17

$$$$
